assay: chemical genetic growth profiling, strain panel (AID 1159580);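 further: tested at 20 µM; growth read once vehicle control cultures reached saturation at 30 °C; 1 = growth at the plate median or of vehicle wells; lower values mean less growth of the strain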; settings: S. cerevisiae deletion strains, growth OD, locus YDR159W, strain sac3, hits give low values
Screen size: about 5,500 compounds; about 2,000 (36%) were called active. Roughly 18% stayed inconclusive and do not appear here. Some of the results follow.
assay metric: normalized growth

molecule="C[C@@H]1CC(Cl)CC[C@H]1C(=O)OC(C)(C)C (stereo not given in full)" obs_value=0.915
molecule=COc1ccc(-c2coc3cc(O)ccc3c2=O)cc1 obs_value=0.955
molecule=COc1ccc(-c2coc3cc(O)ccc3c2=O)c(O)c1O obs_value=1.05
molecule="C=C1C2CC[C@@]3(C)[C@H](c4ccoc4)OC(=O)C[C@]13O[C@H]1CC(=O)C(C)(C)[C@H](C(OC(C)=O)C(=O)OC)[C@@]21C (stereo not given in full)" obs_value=1.05
molecule="OCC(O)CN1CCN(c2ccccc2)CC1 (stereo not given)" obs_value=1.01
molecule=O=c1c(-c2ccc(O)cc2)coc2cc(O)ccc12 obs_value=0.974
molecule="CC[C@@H](C(=O)C(C)[C@@H](O)[C@H](C)CCc1ccc(C)c(O)c1C(=O)O)C1OC(CC)(C2CC[C@](O)(CC)[C@H](C)O2)C[C@@H]1C (stereo not given in full)" obs_value=0.996
molecule="CN(C)CCCC1(c2ccc(F)cc2)OCc2cc(C#N)ccc21 (stereo not given)" obs_value=0.985
molecule=COc1ccc(-c2coc3cc(O)ccc3c2=O)c(OC)c1O obs_value=0.953
molecule=COc1ccc(-c2coc3cc(O)ccc3c2=O)c(OC)c1 obs_value=0.976

###

assay: chemical genetic growth profiling, strain panel (AID 1159580);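 further: tested at 20 µM; growth read once vehicle control cultures reached saturation at 30 °C; 1 = growth at the plate median or of vehicle wells; lower values mean less growth of the strain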; details: S. cerevisiae deletion strains, growth OD, locus YOL078W, strain AVO1, hits give low values
Hit rate of the full screen: of about 5,500 compounds, about 2,000 (36%) were called active. Inconclusive results (about 18%) are left out. The list shows a part of the results.
Quick list: normalized growth per entry.
assay metric: normalized growth

compound=CCCN(CCC)C(=S)NC(=O)c1cccc([N+](=O)[O-])c1 obs_value=0.965
compound=Oc1c(Cl)cc(Cl)cc1C=Nc1nc(-c2ccc3ccccc3c2)cs1 obs_value=0.957
compound=O=C(Nc1cccc(C(F)(F)F)c1)c1cncc(C#Cc2ccccc2)c1 obs_value=0.977
compound=CC(=O)/C(C#N)=N\Nc1ccc(F)cc1 obs_value=0.568
compound=Cc1ccc(Nc2ccnc3cc(Cl)ccc23)cc1F obs_value=0.997
compound="CCOC(=O)C1C(c2c(F)cccc2Cl)C(C(=O)OCC)C(O)(C(F)(F)F)NC1(O)C(F)(F)F (stereo not given)" obs_value=0.998
compound="CC(C)(C)c1ccc(C(=N)SC(C(=O)C(F)(F)F)c2ccccc2)cc1 (stereo not given)" obs_value=0.994
compound=O=C(NCc1ccc(Cl)c(Cl)c1)c1cccnc1OCC(F)(F)F obs_value=0.963
compound=N/C(Cn1ccc(C(F)(F)F)n1)=N/OS(=O)(=O)c1cccc(Cl)c1Cl obs_value=0.986
compound=O=C(c1csc(-c2ccc(Cl)cc2)c1)N1CCCCC1 obs_value=0.948
compound=N#C/C(=N/Nc1ccc(F)cc1)C(=O)c1ccccc1 obs_value=0.852
compound=Cc1ccc(S(=O)(=O)NC(=O)Nc2ccc(Sc3ccccc3)nc2Sc2ccccc2)cc1 obs_value=0.966
compound=N#C/C(=N/Nc1ccc(F)cc1)S(=O)(=O)c1ccc(Cl)cc1 obs_value=0.97
compound=O=[N+]([O-])c1ccc(-c2noc(-c3ccno3)n2)o1 obs_value=0.0939
compound=CC(C)(C)c1ccc(N/N=C(\C#N)C(N)=O)cc1 obs_value=0.108
compound=Fc1cc(I)ccc1Nc1ccnc2cc(Cl)ccc12 obs_value=0.981
compound=COc1cc(Cl)ccc1N/N=C(/C#N)C(N)=O obs_value=0.105
compound=Cc1cccc(NC(=S)N/N=C\c2ccc(F)cc2)c1 obs_value=0.953
compound=N#C/C(=N/Nc1ccccc1)C(=O)c1ccccc1OC(F)(F)F obs_value=0.913
compound=CC(=O)c1ccc(Cl)c(NS(=O)(=O)c2cc(Cl)c(Cl)cc2Cl)c1 obs_value=0.9
compound=O=C(ON=C1CCCCC1)c1ccc([N+](=O)[O-])cc1 obs_value=0.937
compound=O=[N+]([O-])c1ccc(ON=C2CCCCC2)c([N+](=O)[O-])c1 obs_value=0.993
compound=CC(C)c1ccc(COC(=O)Nc2ccc(CSc3ccc(Cl)cc3)o2)cc1 obs_value=0.981
compound=Cc1cc(C(=O)NNS(=O)(=O)c2ccc(F)c(Cl)c2)nn1-c1c(Cl)cc(Cl)cc1Cl obs_value=0.99
compound=CC1(C)CC(=O)C=C(Sc2nc3ccccc3o2)C1 obs_value=0.947
